viability, T/C by entry:
- System: K12877-001-R-J1-PDC complex spheroid viability
- assay.text: Anticancer human tumor K12877-001-R-J1-PDC patient-derived lung adenocarcinoma cell line growth inhibition [RAS]
- condition.parameters: second compound 0.0949 µM; first compound 0.01 µM; hits give low values
observation.type: viability, T/C (%)

INSERT INTO assay_data (compound, tested_system, unit_annotation, experimental_result) VALUES
  ('Nc1ccn(C2OC(CO)C(O)C2(F)F)c(=O)n1 (centres undefined) + CCn1c(-c2cc(N3CCN(C)CC3)cnc2C(C)OC)c2c3cc(ccc31)-c1csc(n1)CC(NC(=O)C1CC1C)C(=O)N1CCCC(N1)C(=O)OCC(C)(C)C2', 'K12877-001-R-J1-PDC complex spheroid viability', '%', 80.9),
  ('O=C(c1ccc(F)c(F)c1Nc1ccc(I)cc1F)N1CC(O)([C@@H]2CCCCN2)C1 + CCn1c(-c2cc(N3CCN(C)CC3)cnc2C(C)OC)c2c3cc(ccc31)-c1csc(n1)CC(NC(=O)C1CC1C)C(=O)N1CCCC(N1)C(=O)OCC(C)(C)C2', 'K12877-001-R-J1-PDC complex spheroid viability', '%', 90.4),
  ('C=CC(=O)N1CCN(c2nc(OCC3CCCN3C)nc3c(F)c(-c4nc(N)cc(C)c4C(F)(F)F)c(Cl)cc23)C(C)C1 (centres undefined) + CCn1c(-c2cccnc2C(C)OC)c2c3cc(ccc31)N1CCOC(CC(NC(=O)C(C(C)C)N(C)C(=O)C3(F)CCN(C(=O)C#CC(C)(C)N(C)C)CC3)C(=O)N3CCCC(N3)C(=O)OCC(C)(C)C2)C1', 'K12877-001-R-J1-PDC complex spheroid viability', '%', 70.5),
  ('CCN1CCN(Cc2ccc(Nc3ncc(F)c(-c4cc(F)c5nc(C)n(C(C)C)c5c4)n3)nc2)CC1 + CCn1c(-c2cc(N3CCN(C)CC3)cnc2C(C)OC)c2c3cc(ccc31)-c1csc(n1)CC(NC(=O)C1CC1C)C(=O)N1CCCC(N1)C(=O)OCC(C)(C)C2', 'K12877-001-R-J1-PDC complex spheroid viability', '%', 97.9);

---

- System: K12877-001-R-J1-PDC complex spheroid viability
- assay.text: Anticancer human tumor K12877-001-R-J1-PDC cell line growth inhibition [RAS]; active = viability on the fitted dose curve at most 10% of control; inactive = the rest;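 also: tumour cells co-cultured with HUVEC and mesenchymal stem cells in spheroids; spheroids exposed to agents for one week before readout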
- condition.parameters: second compound 0.00949 µM; first compound 1 µM
- Source text: RAS pathway inhibitors in Combinations in Complex Spheroids A high-throughput screen of multi-cell type tumor spheroids was designed to identify active combinations of RAS pathway inhibitors and targeted small molecules. Complex spheroids include a stromal component modeled by human endothelial cells (HUVEC) and fibroblasts modeled by human mesenchymal stem cells (MSCs). […] Compounds. […] If the clinical Cmax for an agent had not been determined, the highest concentration tested was 10 microM. […]
Labels: active, inactive

INSERT INTO results (compound, tested_system, assigned_label) VALUES
  ('CCC(CC)c1cc(NC2CCC(N)C2)n2nccc2n1 (stereo not drawn) + CCn1c(-c2cc(N3CCN(C)CC3)cnc2C(C)OC)c2c3cc(ccc31)-c1csc(n1)CC(NC(=O)C1CC1C)C(=O)N1CCCC(N1)C(=O)OCC(C)(C)C2', 'K12877-001-R-J1-PDC complex spheroid viability', 'inactive'),
  ('CC(Nc1ccc2c(c1)OCCn1cc(N3C(=O)OCC3C(F)F)nc1-2)C(N)=O (stereo not drawn) + CCn1c(-c2cc(N3CCN(C)CC3)cnc2C(C)OC)c2c3cc(ccc31)-c1csc(n1)CC(NC(=O)C1CC1C)C(=O)N1CCCC(N1)C(=O)OCC(C)(C)C2', 'K12877-001-R-J1-PDC complex spheroid viability', 'inactive'),
  ('Nc1ccn(C2OC(CO)C(O)C2(F)F)c(=O)n1 (stereo not drawn) + CCn1c(-c2cc(N3CCN(C)CC3)cnc2C(C)OC)c2c3cc(ccc31)-c1csc(n1)CC(NC(=O)C1CC1C)C(=O)N1CCCC(N1)C(=O)OCC(C)(C)C2', 'K12877-001-R-J1-PDC complex spheroid viability', 'active');

Cited source: PubChem BioAssay AID2060894
